Tested on: Matricaria inodora
Test: Pre-emergence herbicidal action, greenhouse, 320 g/ha
Assay type: in vivo
Conditions: application rate 320 g/ha, scored visually after about 3 weeks vs untreated controls
measureName: Matricaria inodora (efficacy in %)
Express your answer in %, writing the number without its unit.

GET /value?item= CC1CC(O)N(c2cc(C(F)(F)F)ccn2)C(=O)N1C (centres unmarked) [I.41-449] &field=Matricaria inodora (efficacy in %) returns 100

GET /value?item= CC(C)CC(=O)OC1CCN(C)C(=O)N1c1cc(C(C)(C)C)on1 (centres unmarked) [I.7-162] &field=Matricaria inodora (efficacy in %) returns 100

GET /value?item= CN1CCC(O)N(c2noc(C(C)(C)C)c2F)C1=O (centres unmarked) [I.1-206] &field=Matricaria inodora (efficacy in %) returns 100

GET /value?item= CCC(=O)OC1CCN(C)C(=O)N1c1cc(C(C)(C)C)on1 (centres unmarked) [I.3-162] &field=Matricaria inodora (efficacy in %) returns 100

GET /value?item= CC(=O)OC1CCN(C)C(=O)N1c1cc(C(C)(C)C)on1 (centres unmarked) [I.2-162] &field=Matricaria inodora (efficacy in %) returns 100

GET /value?item= CC(=O)OC1CC2CCCN2C(=O)N1c1cc(C(C)(C)C)on1 (centres unmarked) [I.122-162] &field=Matricaria inodora (efficacy in %) returns 100

GET /value?item= CN1CCC(O)N(c2cc(C(F)(F)F)ccn2)C1=O (centres unmarked) [I.1-449] &field=Matricaria inodora (efficacy in %) returns 80

GET /value?item= CN1CCC(OC(=O)C(C)(C)C)N(c2cc(C(C)(C)C)on2)C1=O (centres unmarked) [I.6-162] &field=Matricaria inodora (efficacy in %) returns 100

---

Test system: Stellaria media
Experiment: Herbicidal pre-emergence action (Part 2), 1280 g/ha
Format: in vivo
Settings: application rate 1280 g/ha, scored visually after about 3 weeks, Table D8
Excerpt: Seeds of mono- and dicotyledonous weed plants were placed in plastic pots in sandy loam soil (doubly sown with in each case one species of mono- or dicotyledonous weed plants per pot) and covered with soil. […] After about 3 weeks, the effect of the preparations was scored visually in comparison with untreated controls as percentages. […]
For each of the compounds below, state its Stellaria media.
Express your answer in %, writing the number without its unit.

GET /value?item= CC(=O)OC1N(c2cc(C(C)(C)C)on2)C(=O)N(C)CC12CCC2 (centres unmarked) [I.82-162] &field=Stellaria media returns 90

GET /value?item= CC(=O)OC1CCN(C)C(=O)N1c1cc(C(C)(C)C)no1 (centres unmarked) [I.2-290] &field=Stellaria media returns 100

GET /value?item= CCCC(=O)OC1CCN(C)C(=O)N1c1cc(C(C)(C)C)no1 (centres unmarked) [I.4-290] &field=Stellaria media returns 100

GET /value?item= CCCC(=O)OC1CCN(C)C(=O)N1c1cc(C(F)(F)F)ccn1 (centres unmarked) [I.4-449] &field=Stellaria media returns 100

GET /value?item= CCC(=O)OC1CCN(C)C(=O)N1c1cc(C(C)(C)C)no1 (centres unmarked) [I.3-290] &field=Stellaria media returns 100

---

Test system: Pharbitis purpurea
Test: Pre-emergence herbicidal action, greenhouse, 320 g/ha
Format: in vivo
Details: application rate 320 g/ha, Table B12
From the text: Seeds of monocotyledonous and dicotyledonous weed plants and crop plants were placed in plastic or organic planting pots and covered with soil. […] After about 3 weeks, the effect of the preparations is scored visually in comparison with untreated controls as percentages. […]
measureName: Pharbitis purpurea (efficacy in %)
Express your answer in %, writing the number without its unit.

GET /value?item= CN1CCC(O)N(c2noc(C(C)(C)C)c2Br)C1=O (stereo not shown) &field=Pharbitis purpurea (efficacy in %) returns 100

GET /value?item= CN1CCC(O)N(c2cc(C(F)(F)F)ccn2)C1=O (stereo not shown) &field=Pharbitis purpurea (efficacy in %) returns 100

GET /value?item= CN1CCC(O)N(c2cc(C(F)(F)F)c(Br)cn2)C1=O (stereo not shown) &field=Pharbitis purpurea (efficacy in %) returns 100

GET /value?item= CC(=O)OC1CC2CCCN2C(=O)N1c1cc(C(C)(C)C)on1 (stereo not shown) &field=Pharbitis purpurea (efficacy in %) returns 100

GET /value?item= CN1CCC(OC(=O)C(C)(C)C)N(c2cc(C(C)(C)C)on2)C1=O (stereo not shown) &field=Pharbitis purpurea (efficacy in %) returns 90

GET /value?item= CC(=O)OC1CCN(C)C(=O)N1C1=NOC(C)(C)C1 (stereo not shown) &field=Pharbitis purpurea (efficacy in %) returns 100

GET /value?item= CC(C)CC(=O)OC1CCN(C)C(=O)N1c1cc(C(C)(C)C)on1 (stereo not shown) &field=Pharbitis purpurea (efficacy in %) returns 100

GET /value?item= CC(=O)OC1CCN(C)C(=O)N1c1cc(C(C)(C)C)on1 (stereo not shown) &field=Pharbitis purpurea (efficacy in %) returns 100

GET /value?item= COCC(C)(C)c1cc(N2C(=O)N(C)CCC2O)no1 (stereo not shown) &field=Pharbitis purpurea (efficacy in %) returns 100

GET /value?item= CN1CCC(O)N(c2cc(C(C)(C)C)on2)C1=O (stereo not shown) &field=Pharbitis purpurea (efficacy in %) returns 80
